Target: Influenza virus A/Brisbane/59/2007 (H1N1) (Influenza A virus A/Brisbane/59/2007 (H1N1))
Experiment: ELISA on coated viral particles
Assay metric: Binding activity (absorbance at 492 nm)
Answer field: number only, no words.

Exam item: Any idea what its Binding activity (absorbance at 492 nm) is? The binder is Group 65 representative clone F083-366, Fab-cp3-type antibody (Fab, V domains shown) VH: QVQLVQSGSEVKKPGSSVKVSCKASRGIFSSYAISWVRQAPGQGLEWMGAVIPMFGTLKYAENFQGRITISADKSMSAAYMELSSLRSEDTAVYYCARNYYGSGTYFNDAFDIWGQGTMVTVSS VL: QSVLTQPPSGSGAPGQRVTISCTGGNSNIGAGYDVNGYQQLPGKAPKLLIYGNNNRPSGVPDRFSGSKSGTSASLAITGLQVEDEAHYYCQSYDNGLSGSVFGGGTQLTVLG
Marked response: 2.84

Exam item: Sample Group 44 representative clone F081-008, Fab-cp3-type antibody (Fab, V domains shown) VH: QVQLVQSGAEVKKPGSSVKVSCKASGGTFSSFSTYTISWVRQAPGQGLEWMGRSIPLLGITNYAQKFQGRVTITADISTSTAYMELSSLRSEDTAVYYCARYQSSDYYNSEYFQHWGQGTLVTVSS VL: EIVLTQSPGTLSLSLGERVTLSCRASQNVGTNYLAWYQQKPGQAPRLLIYGASSRATGVPDRFSGSGSGTDFTLTISRLAPEDFAVYYCQQYSSSPLTFGGGTKLEIK — what was its Binding activity (absorbance at 492 nm)?
Marked response: 2.89

Exam item: Please look up its Binding activity (absorbance at 492 nm): Group 47 representative clone F083-308, Fab-cp3-type antibody (Fab, V domains shown) VH: QVQLVQSGAEVKKPGSSVKVSCKASGGIFRSHAISWVRQAPGQGLEWMGGIIAIFGTTHYAQQFQGRVTITADESTSTVYMELSTLRSEDTAVYYCARGPNYFESYFDNWGQGTLVTVSS VL: EIVLTQSPATLSLSPGERATLSCRASQTISSYLAWYQQKPGQAPRLLIYGASNRATGIPARFSGSGSGTDFTLTINSLEPEDFAVYYCQQRSSWPPITFGQGTRLEIK
Marked response: 1.82

Exam item: I would be grateful if you could share the reported Binding activity (absorbance at 492 nm) for Group 38 representative clone F082-338, Fab-cp3-type antibody (Fab, V domains shown) VH: QVQLQESGAEVKKPGSSVKVSCKASGGPFRSHAISWVRQAAGQGLEWMGGITAVFGTANYAQKFQGRVTITADESTNIVSMELSSLRSEDTAIYYCARSLGYHTQYNGMDVWGQGTTVTVSS VL: DVVMTQSPSSVSASVGDRVTITCRASQGISSWLAWYQQKPGKAPKLLIYAASSLQSGVPSRFSGSGSGTDFTLTISSLQPEDFATYYCQQANSFPITFGQGTRLEIK .
Marked response: 2.93

Exam item: Reported Binding activity (absorbance at 492 nm) for Group 43 representative clone F081-007, Fab-cp3-type antibody (Fab, V domains shown) VH: QVQLQQSGAEVKKPGSSVKVSCKASGGIFRKNAISWVRQAPGQGLEWMGGISAIFGTANYAQKFQGRVTITADESSNTVYMDLSRLRSEDTAIYYCASHPTYHFDKSGYRFDSWGQGTLVTVSS VL: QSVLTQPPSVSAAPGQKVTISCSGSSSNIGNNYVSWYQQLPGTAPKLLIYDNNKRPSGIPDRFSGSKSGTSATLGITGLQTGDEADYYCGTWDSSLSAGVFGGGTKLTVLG : what is it?
Marked response: 2.72

Exam item: So what's the measured Binding activity (absorbance at 492 nm) for this one? Group 3 representative clone F081-281, Fab-cp3-type antibody (Fab, V domains shown) VH: QVQLVQSGSEVKKPGSSVKVSCSFKASGGIISKYAITWVRQAPGQGLEWMGGIIAIFGSTNYAQKFQGRLTITSDESTSTAYMELSSLTSEDTAVYYCGRGPHYYESHLDYWGQGTLVTVSS VL: EIVLTQSPGTLSLSPGERATLSCRASQGMSSSFLAWYQQKPGQPPRLLISGASTRATGIPDRFSGSGSGTDFTLTINRLEPEDFAVYYCQQYGSSPRTFGQGTKVEIK
Marked response: 2.98

Exam item: So what's the measured Binding activity (absorbance at 492 nm) for this one? Group 52 representative clone F083-328, Fab-cp3-type antibody (Fab, V domains shown) VH: QVQLVQSGAEVKKPGSSVKLSCKASGGTLRSYALSWVRQAPGEGLEWMGGISAIFNTATYAQNVQGRVTITADESTNTFYLEVSSLRSDDTAVYYCATSGTYYVSFFDYWGQGTLVTVSS VL: DIVLTQSPSTLSASVGDRVTLTCRASQSIGSLMAWYQQQPGKPPKLLIYRASNLETGVPSRFTGSGSGTEFALTISSLQPDDVGTYYCQHFKTFSRTFGQGTKVEIK
Marked response: 2.43

Exam item: Would you mind telling me what Binding activity (absorbance at 492 nm) value was observed for Group 51 representative clone F083-302, Fab-cp3-type antibody (Fab, V domains shown) VH: QVQLVQSGAEVKKPGSSVKVSCEASGATFSSNAFSWVRQAPGQGPEWMGGIITMFRKAEYAQKFQGRVTITAGELGSTAYMEVRSLTFEDTAVYYCARHSGYHLIGYFDSWGQGTLVTVSS VL: QSVLTQPPSVSAAPGQKVTISCSGTTSNIGNNYVSWYQQLPGAAPKLLIYDNNKRPSGIPDRFSGSKSDTSATLGITGLQTGDEADYYCGTWVSSLSVWVFGGGTKLTVLG ?
Marked response: 2

Exam item: Would you kindly share the measured Binding activity (absorbance at 492 nm) for Group 1 representative clone F080-227, Fab-cp3-type antibody (Fab, V domains shown) VH: QVQLQESGAEVKKPGSSVKVSCKASGGIFRRNAISWVRQAPGQGLEWMGGIIAIFGTANYAQKFQGRVTITADESTSTVYMELSSLRPEDTAVYYCARGPNYYENFFDYWGQGTLVTVSS VL: DIVMTQSPSSLSASVGDRLDLTCRASQDIANSLAWYKQRPGKAPELLVFGASRLEGGVPSRFSGTRAGTDFTLTISSLQPEDLGTYFCQQYFSFPRTFGQGTTLDLR ?
Marked response: 3.1

Exam item: Recorded Binding activity (absorbance at 492 nm) of Group 58 representative clone F083-307, Fab-cp3-type antibody (Fab, V domains shown) VH: QVQLQQSGADVKKPGSSVKVSCKASGGTFGNYAISWVRQAPGQGLEWMGGITPIFGPANYAQRFQGRVTISADISTRTAYMELSSLRSEDTAIYYCARHPTYYFGSAMEYWGQGTLVTVSS VL: SYELTQPPSVSVAPGQTATITCGGDRIGTGPVHWYQQRPGRAPVLIIYGSTHRPSGIPERFSGSKSVNTATLSISGVGVGDEADYYCQVWDTSTAQPIVFGGGTKLTVLS , please.
Marked response: 3.04

All values here come from patent US20160200799A1.
